Target: Cathepsin K (Homo sapiens, UniProt P43235)
Sequence (P43235 whole entry): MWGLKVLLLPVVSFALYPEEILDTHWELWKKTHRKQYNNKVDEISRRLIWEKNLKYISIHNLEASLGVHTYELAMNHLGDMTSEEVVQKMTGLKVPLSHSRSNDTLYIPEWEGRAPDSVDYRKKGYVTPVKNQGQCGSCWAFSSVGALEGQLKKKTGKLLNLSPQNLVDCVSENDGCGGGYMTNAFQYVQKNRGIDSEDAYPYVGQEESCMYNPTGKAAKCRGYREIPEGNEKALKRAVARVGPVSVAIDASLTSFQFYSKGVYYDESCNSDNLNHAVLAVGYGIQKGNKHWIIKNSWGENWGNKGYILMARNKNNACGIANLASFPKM
Test: Inhibition of human recombinant cathepsin K using z-LR-AFC as substrate by fluorescence assay
pIC50: −log10 of the molar value.
Mark n for pIC50 values under 7, and y for everything at or above.

{"Molecular String": "C[C@@H]1CC[C@H](NC(=O)[C@H](CC2(C)CCCC2)NC(=O)c2ccco2)C(=O)CN1S(=O)(=O)c1ccccn1", "Label Value": "y"}
{"Molecular String": "C[C@@H]1CC[C@H](NC(=O)[C@H](CC2(C)CCCCC2)NC(=O)c2ccco2)C(=O)CN1C(=O)c1ccccn1", "Label Value": "n"}
{"Molecular String": "C[C@@H]1CC[C@H](NC(=O)[C@H](CC(C)(C)C)NC(=O)c2ccco2)C(=O)CN1S(=O)(=O)c1ccccn1", "Label Value": "y"}
{"Molecular String": "C[C@@H]1CC[C@H](NC(=O)[C@H](CCC2CCCC2)NC(=O)c2ccco2)C(=O)CN1S(=O)(=O)c1ccccn1", "Label Value": "n"}
{"Molecular String": "C[C@@H]1CC[C@H](NC(=O)[C@H](CC2CCCCCC2)NC(=O)c2ccco2)C(=O)CN1S(=O)(=O)c1ccccn1", "Label Value": "y"}
{"Molecular String": "C[C@@H]1CC[C@H](NC(=O)[C@H](CC2(C)CCCCC2)NC(=O)c2ccco2)C(=O)CN1S(=O)(=O)c1ccccn1", "Label Value": "y"}

* * *

Molecular target: Procathepsin L (Homo sapiens, UniProt P07711)
Sequence (P07711 whole entry): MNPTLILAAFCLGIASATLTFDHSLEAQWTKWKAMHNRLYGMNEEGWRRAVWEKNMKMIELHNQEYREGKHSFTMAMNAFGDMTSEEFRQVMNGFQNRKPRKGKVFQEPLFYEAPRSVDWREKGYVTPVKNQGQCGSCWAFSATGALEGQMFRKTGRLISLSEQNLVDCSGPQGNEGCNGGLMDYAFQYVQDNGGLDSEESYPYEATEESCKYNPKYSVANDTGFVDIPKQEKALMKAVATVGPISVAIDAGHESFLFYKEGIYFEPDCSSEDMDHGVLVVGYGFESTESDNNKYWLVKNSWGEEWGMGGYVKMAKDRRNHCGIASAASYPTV
Experiment: Inhibition of human recombinant cathepsin L using Z-LR-AMC as substrate by fluorescence assay
pIC50: −log10 of the molar value.
Mark NO for pIC50 values under 8, and YES for everything at or above.

{"Compound": "C[C@@H]1CC[C@H](NC(=O)[C@H](CC2CCCC2)NC(=O)c2ccco2)C(=O)CN1S(=O)(=O)c1ccccn1", "Label Value": "YES"}
{"Compound": "C[C@@H]1CC[C@H](NC(=O)[C@H](CC2(C)CCCCC2)NC(=O)N2CCOCC2)C(=O)CN1S(=O)(=O)c1ccccn1", "Label Value": "NO"}
{"Compound": "C[C@@H]1CC[C@H](NC(=O)[C@H](CC2(C)CCCC2)NC(=O)c2ccco2)C(=O)CN1S(=O)(=O)c1ccccn1", "Label Value": "NO"}
{"Compound": "C[C@@H]1CC[C@H](NC(=O)[C@@H](CC2(C)CCCC2)NC(=O)c2ccco2)C(=O)CN1S(=O)(=O)c1ccccn1", "Label Value": "NO"}
{"Compound": "CC(C)C[C@H](NC(=O)c1ccco1)C(=O)N[C@H]1CC[C@@H](C)N(S(=O)(=O)c2ccccn2)CC1=O", "Label Value": "YES"}
{"Compound": "C[C@@H]1CC[C@H](NC(=O)[C@@H](CC2(C)CCCCC2)NC(=O)c2ccco2)C(=O)CN1S(=O)(=O)c1ccccn1", "Label Value": "NO"}
{"Compound": "C[C@@H]1CC[C@H](NC(=O)[C@H](CC2=CCCC2)NC(=O)c2ccco2)C(=O)CN1S(=O)(=O)c1ccccn1", "Label Value": "YES"}
{"Compound": "C[C@@H]1CC[C@H](NC(=O)[C@H](CC2CCC(C)(C)CC2)NC(=O)c2ccco2)C(=O)CN1S(=O)(=O)c1ccccn1", "Label Value": "NO"}
{"Compound": "C[C@@H]1CC[C@H](NC(=O)[C@H](CC2CCCCCC2)NC(=O)c2ccco2)C(=O)CN1S(=O)(=O)c1ccccn1", "Label Value": "YES"}
{"Compound": "CC1CCC(C[C@H](NC(=O)c2ccco2)C(=O)N[C@H]2CC[C@@H](C)N(S(=O)(=O)c3ccccn3)CC2=O)CC1 (stereo not given in full)", "Label Value": "YES"}
{"Compound": "C[C@@H]1CC[C@H](NC(=O)[C@H](CC23CCC(CC2)C3(C)C)NC(=O)N2CCOCC2)C(=O)CN1S(=O)(=O)c1ccccn1", "Label Value": "NO"}

Hey, just so you know, these numbers are from ChEMBL document CHEMBL1806418.
